Reported growth values for the following compounds.
System: NCI-H522 lung
Assay: NCI-60 one-dose screen, 48 h (100 = growth as untreated, 0 = no growth, -100 = all killed)
Condition info: 10 µM unless noted
Compounds without any hit were thinned out: in the full panel of roughly 83,000, 20% have a hit. The source made the active and inactive calls. How the source made its calls: active means growth percent below 10; inactive means the rest.
Attribute measured: growth

- Compound: "OCc1cnccc1NCCCOc1ccccc1"
  Measured: "100% (inactive)"
- Compound: "Cc1cc(Cl)nc(N(CCNc2ccnc3cc(Cl)ccc23)Cc2ccccn2)n1"
  Measured: "54.1% (inactive)"
- Compound: "CC(C)N1C(=O)/C(=C2\\SC(=S)N(C(C)C)C2=O)SC1=S"
  Measured: "90.6% (inactive)"
- Compound: "CCCCC[n+]1ccc(SCC(=O)N(C)c2ccc(Oc3ccccc3)cc2)c2ccccc21"
  Measured: "63.3% (inactive)"
- Compound: "COc1ccccc1/C=C1\\Oc2cc(OCCN3CCCC3)ccc2C1=O"
  Measured: "89.8% (inactive)"
- Compound: "O=C(/C=C/c1ccc(F)cc1)c1ccc(NC(=O)N2CCN(c3cc4c(cc3F)c(=O)c(C(=O)O)cn4C3CC3)CC2)cc1"
  Measured: "87% (inactive)"
- Compound: "CCCCCCNC(=O)Oc1ccc(/C(=C(\\C)c2ccccc2)c2ccc(OCCN3CCCCC3)cc2)cc1"
  Measured: "71.8% (inactive)"
- Compound: "CC/C(=C\\c1ccc(OC)cc1)C(=O)c1ccc(OC)cc1"
  Measured: "74.3% (inactive)"
- Compound: "COc1cc(NC(=O)CSc2nc3ccc(C)cc3c(=O)n2Cc2ccccc2)cc(OC)c1OC"
  Measured: "31.9% (inactive)"
- Compound: "COc1ccc(C/C(C)=C(/c2ccc(OCCCN(C)C)cc2)c2ccc(OC(C)=O)cc2)cc1"
  Measured: "95.5% (inactive)"
- Compound: "CCc1c2c(nc3ccc(OCc4ccc(B(O)O)cc4)cc13)-c1cc3c(c(=O)n1C2)COC(=O)[C@]3(O)CC"
  Measured: "-9.3% (active)"
- Compound: "COc1cccc(-c2nc3occn3c2-c2ccnc(NCCNS(=O)(=O)c3cccc4ccccc34)n2)c1"
  Measured: "102% (inactive)"
- Compound: "NC(=O)Nc1ccc(-n2cnc3cc(-c4ccc(O)cc4)ccc32)cc1"
  Measured: "73.3% (inactive)"
- Compound: "N#Cc1c(NC(=O)NCc2ccccc2)sc2c1CCCCC2"
  Measured: "12.1% (inactive)"
- Compound: "CCOC(=O)/C(C#N)=C1/NNC(=Nc2cccnc2)S1"
  Measured: "85.3% (inactive)"
- Compound: "N#Cc1c(NCc2ccccc2I)sc2c1CCCCC2"
  Measured: "86.7% (inactive)"
- Compound: "NS(=O)(=O)c1ccc(Cn2c(SCC(=O)N/N=C/c3ccccc3O)nc3ccccc3c2=O)cc1"
  Measured: "-1.28% (active)"
- Compound: "COc1cc(F)c(/C=C/c2cc(/C=C/c3cc(OC)c(OC)cc3F)on2)cc1OC"
  Measured: "62.3% (inactive)"
- Compound: "COC(=O)/C=C1\\S/C(=N\\NC(=O)c2cc3ccc2/C=C\\c2ccc(cc2)/C=C\\3)N(c2ccccc2)C1=O"
  Measured: "41.5% (inactive)"
- Compound: "CC(Sc1nc2sc3c(c2c(=O)n1-c1ccc(Cl)cc1)CCCC3)C(=O)Nc1nc(-c2ccc(Br)cc2)cs1 (stereo not given)"
  Measured: "82.1% (inactive)"
